The values you see were collected from patent US4661495A.

TESTED TARGET: carboxypeptidase A (Bos taurus, UniProt P00730)
Construct: purchased Sigma Co. Type 1; host or cells: bovine pancreas
Sequence (P00730 111-417 limits assumed): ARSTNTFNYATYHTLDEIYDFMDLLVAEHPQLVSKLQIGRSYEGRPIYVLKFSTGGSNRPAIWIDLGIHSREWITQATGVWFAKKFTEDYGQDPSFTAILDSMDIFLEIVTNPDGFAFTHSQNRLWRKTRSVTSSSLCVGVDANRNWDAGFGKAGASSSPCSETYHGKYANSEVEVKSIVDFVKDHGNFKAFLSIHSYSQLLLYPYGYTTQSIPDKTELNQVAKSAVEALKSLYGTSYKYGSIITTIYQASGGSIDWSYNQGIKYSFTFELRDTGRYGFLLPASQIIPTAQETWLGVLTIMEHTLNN
ASSAY METHOD TEXT: inhibitory activity of the compounds to carboxypeptidase A
Format: biochemical, bovine
CONDITION NOTES: hippuryl-L-phenylalanine substrate, pH 7.5, 37° C., 30 minutes; read-out: IC50 (50% Inhibition Concentration) (converted)
Description: (1) Method of testing the inhibitory activity of the compounds to carboxypeptidase A: The carboxypeptidase A-inhibitory activity was determined according to a modification of the method of Hayakari et al. (M. Hayakari et al., "Analytical Biochemistry" 84, 361-369, 1978). […] After the reaction solution was allowed to stand at ambient temperature for 5 minutes, absorbance (a) at 382 nm of the reaction solution was measured. […]
MEASURED ATTRIBUTE: IC50 (nM)
Give bare numbers, in nM.

INSERT INTO assay_data (compound, tested_target, measurement) VALUES
  ('Cc1cc(C)nc(NCCCC(NC(=O)OCc2ccccc2)C(=O)CC(Cc2ccc(O)cc2)C(=O)O)n1 (stereo not shown)', 'carboxypeptidase A (Bos taurus, UniProt P00730)', 655);

Answer for every listed entry: what is its IC50? The entries follow.
1. Cc1cc(C)nc(NCCCC(NC(=O)OCc2ccccc2)C(=O)CC(Cc2ccccc2)C(=O)O)n1 (stereo not shown)
2. Cc1cc(C)nc(NCCCC(NC(=O)c2ccccc2)C(=O)CC(Cc2ccc(O)cc2)C(=O)O)n1 (stereo not shown)

Completion:
1: 123; 2: 17.4

Prompt: // lookup IC50 for Cc1cc(C)nc(NCCCC(NC(=O)c2ccccc2)C(=O)CC(Cc2ccccc2)C(=O)O)n1 (stereo not shown)
Completion: 40.9

* * *

Test system: D.T.H. response with sheep red blood cells
ASSAY METHOD TEXT: effect on cell-mediated or cellular immunity: Delayed Type Hypersensitivity (D.T.H.) with sheep red blood cells
Assay type: in vivo, CDF1-mouse
CONDITION NOTES: oral, 0.5 mg/Kg; 24 hours after challenge; * P < 0.05
MEASURED ATTRIBUTE: Percentage of increase in footpad thickness (Percentage)
Numbers only, in Percentage.

INSERT INTO results (compound, measurement) VALUES
  ('Cc1cc(C)nc(NCCCC(NC(=O)OCc2ccccc2)C(=O)CC(Cc2ccc(O)cc2)C(=O)O)n1 (stereo not shown)', 123);

Below are some compounds; for each one, tell me its Percentage of increase in footpad thickness.
1. Cc1cc(C)nc(NCCCC(NC(=O)c2ccccc2)C(=O)CC(Cc2ccccc2)C(=O)O)n1 (stereo not shown)
2. Cc1cc(C)nc(NCCCC(NC(=O)c2ccccc2)C(=O)CC(Cc2ccc(O)cc2)C(=O)O)n1 (stereo not shown)
3. Cc1cc(C)nc(NCCCC(NC(=O)OCc2ccccc2)C(=O)CC(Cc2ccccc2)C(=O)O)n1 (stereo not shown)

Completion:
1: 121; 2: 130; 3: 120
